// provenance: paper PMC9071946

molecular target: human glutaminyl cyclase (hQC) (Homo sapiens); experiment: hQC inhibition, fluorometric assay with fluorogenic substrate Glu-AMC and pGAPase; conditions: IC50, supplement Table S3
Sequence (Q16769 29-361): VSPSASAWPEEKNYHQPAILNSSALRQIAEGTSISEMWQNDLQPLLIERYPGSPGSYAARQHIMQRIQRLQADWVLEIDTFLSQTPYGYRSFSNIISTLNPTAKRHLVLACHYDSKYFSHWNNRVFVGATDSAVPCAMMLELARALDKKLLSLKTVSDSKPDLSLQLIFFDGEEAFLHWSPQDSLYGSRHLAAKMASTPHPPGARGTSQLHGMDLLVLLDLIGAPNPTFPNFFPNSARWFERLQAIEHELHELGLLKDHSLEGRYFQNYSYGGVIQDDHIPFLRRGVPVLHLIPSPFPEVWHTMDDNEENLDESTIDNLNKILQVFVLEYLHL
quantity measured: pIC50
In textbook form, pIC50 equals minus log to base ten of the concentration in mol/L.

Exercise: Tell me reported pIC50 for COc1ccc(Nc2nnc(CCn3cncc3C)o2)cc1OC [Compound 1_4] , tested with human glutaminyl cyclase (hQC) (Homo sapiens).
Solution: 6.38

Exercise: Tell me reported pIC50 for COC(=O)C(C)NC(=O)C(Cc1ccccc1)NCCCn1cncc1C (stereo not drawn) [Compound 3_1] , tested with human glutaminyl cyclase (hQC) (Homo sapiens).
Solution: 6.20

Continuing:
Exercise: Tell me reported pIC50 for COc1cc2nc(NCCCn3cncc3C)[nH]c2cc1OC [Compound 1_2] , tested with human glutaminyl cyclase (hQC) (Homo sapiens).
Solution: 6.97

Exercise: Tell me reported pIC50 for COc1cc2nc(NCCCn3cncc3C)sc2cc1OC [Compound 1_1] , tested with human glutaminyl cyclase (hQC) (Homo sapiens).
Solution: 6.52

Exercise: Tell me reported pIC50 for COc1ccc(Nc2nc(CCn3cncc3C)cs2)cc1OC [Compound 1_3] , tested with human glutaminyl cyclase (hQC) (Homo sapiens).
Solution: 6.50

Exercise: Tell me reported pIC50 for Cc1cncn1CCCNC(Cc1ccccc1)C(=O)NC(C)C(N)=O (stereo not drawn) [Compound 3_3] , tested with human glutaminyl cyclase (hQC) (Homo sapiens).
Solution: 6.35

---

molecular target: human glutaminyl cyclase (hQC) (Homo sapiens); assay: hQC inhibition, fluorometric assay with fluorogenic substrate Glu-AMC and pGAPase; conditions: Table 2; from IC50 assumed equal to the inhibition constant ki
# key: entry, value: ΔGEXP
Quick reminder: number only, in kcal/mol, skip the unit.

The examples below pair each entry with its known result.
Exercise: Fill in: ΔGEXP of COc1cc2nc(NCCCn3cncc3C)sc2cc1OC is ___
Solution: -8.94

Exercise: Fill in: ΔGEXP of COc1cc2nc(NCCCn3cncc3C)[nH]c2cc1OC is ___
Solution: -9.57

Exercise: Fill in: ΔGEXP of Cc1cncn1CCCNC(Cc1ccccc1)C(=O)NC(C)C(N)=O (stereo not drawn) is ___
Solution: -8.68

Continuing:
Exercise: Fill in: ΔGEXP of COc1ccc(Nc2nc(CCn3cncc3C)cs2)cc1OC is ___
Solution: -8.92

Exercise: Fill in: ΔGEXP of COc1ccc(Nc2nnc(CCn3cncc3C)o2)cc1OC is ___
Solution: -8.75

Exercise: Fill in: ΔGEXP of COC(=O)C(C)NC(=O)C(Cc1ccccc1)NCCCn1cncc1C (stereo not drawn) is ___
Solution: -8.50

---

molecular target: UniProtKB Q16769; test: hQC inhibition, fluorometric assay with fluorogenic substrate Glu-AMC and pGAPase; settings: IC50 for inhibition of the hQC enzyme, Table 1; HEPES pH 7.0, 37 °C
quantity measured: IC50
Your reply should be a number followed by the unit it is expressed in.

The examples below pair each entry with its known result.
Exercise: Fill in: IC50 of COc1ccc(Nc2nc(CCn3cncc3C)cs2)cc1OC [Compound 1_3] is ___
Solution: 320 nM

Exercise: Fill in: IC50 of Cc1cncn1CCCNC(Cc1ccccc1)C(=O)NC(C)C(N)=O (stereo not drawn) [Compound 3_3] is ___
Solution: 450 nM

Exercise: Fill in: IC50 of COc1cc2nc(NCCCn3cncc3C)sc2cc1OC [Compound 1_1] is ___
Solution: 300 nM

Continuing:
Exercise: Fill in: IC50 of COc1cc2nc(NCCCn3cncc3C)[nH]c2cc1OC [Compound 1_2] is ___
Solution: 110 nM

Exercise: Fill in: IC50 of COC(=O)C(C)NC(=O)C(Cc1ccccc1)NCCCn1cncc1C (stereo not drawn) [Compound 3_1] is ___
Solution: 640 nM

Exercise: Fill in: IC50 of COc1ccc(Nc2nnc(CCn3cncc3C)o2)cc1OC [Compound 1_4] is ___
Solution: 420 nM
